Hi there, I'd appreciate the recorded IC50 for every entry that follows.
Test system: CEM cells HIV-1 protection, formazan growth assay
assay.method.text: NCI AIDS Antiviral Assay
measurement.context: measured here: growth of uninfected CEM cells

// IC50 lookup, compound = C/C(CC(=O)Nc1ccc([N+](=O)[O-])cc1)=N/N=C(N)N , result: > 67.6 µM

// IC50 lookup, compound = O=C(O)/C=C/c1ccc(OS(=O)(=O)O)cc1 , result: > 200 µM

// IC50 lookup, compound = C=CCc1c(O)c2ccccc2[nH]c1=O , result: > 200 µM

// IC50 lookup, compound = COc1nc2nccnc2c(=O)n1C , result: > 200 µM

Value source: PubChem BioAssay AID179
